# Test system: NCI-H460 lung
# assay explanation: NCI-60 one-dose screen, 48 h (100 = growth as untreated, 0 = no growth, -100 = all killed)
# particulars: 10 µM unless noted
About 83,000 compounds went through this panel and 20% of them were active in at least one assay; those are over-represented in the sample as a whole.
Measured growth of individual entries

{"compound": "O=C(c1ccccc1)c1ccccc1-c1ccccc1", "measurement target": "NCI-H460 lung", "growth (%)": 15.1}
{"compound": "CCOC(=O)C1=C(c2ccccc2)NC(=O)NC1CN1C(=O)c2ccccc2C1=O (centres undefined)", "measurement target": "NCI-H460 lung", "growth (%)": 105}
{"compound": "CC(C)OC(=O)c1ccc2n1CCCc1cnc(Nc3ccccc3)nc1-2", "measurement target": "NCI-H460 lung", "growth (%)": 86.6}
{"compound": "CCCC(=O)NNc1[nH]c(-c2cc(OC)c(OC)c(OC)c2)cc1C(=O)OCC", "measurement target": "NCI-H460 lung", "growth (%)": 123}
